- Tested on: nude mice, LOX melanoma ip, survival T/C
- protocol: NCI In Vivo Anticancer Drug Screen. Data for tumor model Human Amelanotic Melanoma (LOX) (intraperitoneal) in NU/NU BALB/C (nude) mice
- cond: endpoint: median survival time; dose: 37.5 mg/kg/injection; schedule: Q04DX003 (ip); vehicle: Klucel (hydroxypropylcellulose) (HPC); higher = longer survival
Inconclusive results and toxic doses are left out.
The following molecules are shown together with reported T/C values.
readout-kind: T/C

N=C(N)c1ccc(N=Nc2c(O)ccc3cc(O)ccc23)cc1	102 % of control
N/C(=N\OC(=O)Nc1ccc(CSc2ccc(Cl)cc2)o1)c1ccccn1	97 % of control
O=[N+]([O-])c1ccc([I+]c2ccccc2)cc1	108 % of control
COc1cc2c(cc1OC)[C@@H]1C(=O)c3ccc4c(c3O[C@@H]1CO2)C[C@H](C(C)C)O4	110 % of control
COC1CC2C=C(C)/C=C/C=C/C(=O)NC(c3ccccc3)C/C=C/CCC(O)CC(=O)C2=C1O (stereo unspecified)	187 % of control
COc1ccccc1/C=C/C(=O)c1ccccc(=O)c1O	98 % of control
